Cited source for all entries: patent US8173635B2

Hi there, I'd appreciate the recorded Ki for every entry that follows.
molecular target: UniProt Q04759; assay: PKC theta kinase inhibition, coupled-enzyme NADH absorbance assay (Ki); format: biochemical; settings: 240 μM ATP, 18 nM PKC theta, 30° C.; read-out: Ki PKC theta
Sequence (Q04759 whole entry): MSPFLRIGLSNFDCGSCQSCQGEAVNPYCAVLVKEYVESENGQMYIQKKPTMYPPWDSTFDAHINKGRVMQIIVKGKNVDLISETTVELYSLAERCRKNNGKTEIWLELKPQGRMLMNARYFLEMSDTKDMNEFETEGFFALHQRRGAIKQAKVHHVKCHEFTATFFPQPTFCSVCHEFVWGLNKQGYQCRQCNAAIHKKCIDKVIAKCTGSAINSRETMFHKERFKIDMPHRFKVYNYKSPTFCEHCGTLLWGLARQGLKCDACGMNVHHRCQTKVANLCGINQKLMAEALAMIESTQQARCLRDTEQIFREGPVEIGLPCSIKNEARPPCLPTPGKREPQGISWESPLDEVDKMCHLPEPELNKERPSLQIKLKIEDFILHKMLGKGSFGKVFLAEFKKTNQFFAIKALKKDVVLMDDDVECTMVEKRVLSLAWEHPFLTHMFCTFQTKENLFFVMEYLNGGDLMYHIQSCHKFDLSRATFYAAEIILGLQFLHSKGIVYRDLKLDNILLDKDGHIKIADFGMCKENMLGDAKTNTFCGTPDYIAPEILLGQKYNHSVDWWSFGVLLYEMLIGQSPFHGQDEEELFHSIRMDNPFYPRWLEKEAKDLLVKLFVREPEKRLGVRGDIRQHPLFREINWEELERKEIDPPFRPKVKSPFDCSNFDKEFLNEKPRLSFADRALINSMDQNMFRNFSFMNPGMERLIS

Some solved entries appear below for comparison.
The recorded Ki with UniProt Q04759 for CC#CCC(C)(CN)c1cc(C)cc(-c2ccnc3[nH]ncc23)c1 (stereo not shown) was < 50 nM

The recorded Ki with UniProt Q04759 for "N#CC1(c2cccc(-c3ccnc4[nH]ncc34)c2)CCC1" was < 500 nM

Parameter requested: Ki. Apply to each item below.
1. Cc1cc(-c2ccnc3[nH]nc(C(F)(F)F)c23)cc(C2(CN)CC2)c1
2. FC(F)C1(c2cccc(-c3ccnc4[nH]ncc34)c2)CCNC1 (stereo not shown)

1. < 50 nM
2. < 50 nM

Parameter requested: Ki. Apply to each item below.
1. CC(C)(C#N)c1cccc(-c2ccnc3[nH]ncc23)c1
2. CCC(C)(C#N)c1cc(-c2ccnc3[nH]ncc23)cc(C(F)(F)F)c1 (stereo not shown)
3. CCCc1cc(-c2ccnc3[nH]ncc23)cc(C2(CCN)CCC2)c1
4. CC(F)c1cc(-c2ccnc3[nH]ncc23)cc(C(C)(C)CN)c1 (stereo not shown)
5. CCC(C)(C#N)c1cc(-c2ccnc3[nH]ncc23)cc(C(F)(F)CC2CCCCC2)c1 (stereo not shown)
6. NC[C@]1(c2cccc(-c3ccnc4[nH]ncc34)c2)CC[C@@H](O)CC1

1. < 50 nM
2. < 500 nM
3. < 2800 nM
4. < 50 nM
5. > 700 nM
6. < 500 nM
